Test system: HL-60
Assay: NCI tumour cell line growth inhibition, 48 h
Activity calls are given as the source filed them. No stated cut-off is given here; in the data, active = GI50 up to about 1.1 µM and inactive = higher.
property.label: GI50

[[record]]
compound = "CC1=C2C(=O)C3[C@@H](CCC4=CC(=O)CC[C@@]43C)C2CC[C@]12O[C@@H]1C[C@H](C)CN[C@H]1[C@H]2C (some centres undefined)"
assay_value = "12.3 µM (inactive)"

[[record]]
compound = "COc1c(OC)c(O)c2c(=O)c(OC)c(-c3ccc4c(c3)OCO4)oc2c1O"
assay_value = "19.5 µM (inactive)"

[[record]]
compound = "CC1=NN(C(=O)c2cc(Cl)cc([N+](=O)[O-])c2)C(=O)C1/N=N/c1ccccc1C(=O)O (centres undefined)"
assay_value = "> 100 µM (inactive)"

[[record]]
compound = "COCN1C(=O)[C@@H]2C[C@@H](O)CN2C(=O)c2ccccc21"
assay_value = "60.5 µM (inactive)"

